# Transactivation A549 Cells GRAMMER Emax (%) per record follows
# system tested: human GR (Homo sapiens, UniProt P04150)
# Construct: naturally expresses the human GR; endogenous in cells
# Sequence (P04150 whole entry): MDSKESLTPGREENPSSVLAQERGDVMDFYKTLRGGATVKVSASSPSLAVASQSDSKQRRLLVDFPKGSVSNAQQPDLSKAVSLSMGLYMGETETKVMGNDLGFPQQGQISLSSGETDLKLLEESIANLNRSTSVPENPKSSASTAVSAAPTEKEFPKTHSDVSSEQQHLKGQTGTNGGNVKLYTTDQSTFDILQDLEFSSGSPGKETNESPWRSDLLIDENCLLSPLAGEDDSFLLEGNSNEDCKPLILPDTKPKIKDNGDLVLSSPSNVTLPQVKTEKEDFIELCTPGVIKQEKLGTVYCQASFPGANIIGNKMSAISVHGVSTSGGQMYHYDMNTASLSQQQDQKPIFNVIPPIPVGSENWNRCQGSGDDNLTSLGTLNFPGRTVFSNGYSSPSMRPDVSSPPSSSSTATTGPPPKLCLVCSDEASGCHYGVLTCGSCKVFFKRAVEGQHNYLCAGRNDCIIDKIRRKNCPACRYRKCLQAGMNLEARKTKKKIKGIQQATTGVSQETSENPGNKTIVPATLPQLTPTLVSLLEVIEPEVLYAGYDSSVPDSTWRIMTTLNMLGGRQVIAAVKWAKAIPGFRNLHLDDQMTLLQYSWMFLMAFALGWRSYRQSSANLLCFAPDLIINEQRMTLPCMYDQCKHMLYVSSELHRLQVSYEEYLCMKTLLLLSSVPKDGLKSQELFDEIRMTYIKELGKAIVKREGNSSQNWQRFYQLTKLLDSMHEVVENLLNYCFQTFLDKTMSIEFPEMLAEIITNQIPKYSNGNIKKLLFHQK
# measurement notes: Trans-Activation Modulation of Glucocorticoid Receptor Assay (GRAMMER), MMTV-LUC reporter in A549 cells
# Assay type: cell-based
# condition notes: Emax relative to the activity obtained with 300 nM dexamethasone
readout kind: Transactivation A549 Cells GRAMMER Emax (%)

>>> meas_value("C[C@]12Cc3cnn(-c4ccc(F)cc4)c3C=C1CC[C@@]2(CO)CC(O)c1ccccn1 (single isomer, unassigned) [Example 1a]")
83.9
>>> meas_value("C[C@]12Cc3cnn(-c4ccccc4)c3C=C1CC[C@@]2(CO)CC(O)c1cccnc1 (single isomer, unassigned) [Example 29a]")
30.7
>>> meas_value("C[C@]12Cc3cnn(-c4ccc(F)cc4)c3C=C1CC[C@@]2(CO)CC(O)C(F)(F)F (single isomer, unassigned) [Example 28b]")
42.3
>>> meas_value("C[C@]12Cc3cnn(-c4ccccc4)c3C=C1CC[C@@]2(CO)CC(O)c1cccnc1 (single isomer, unassigned) [Example 29b]")
13.7
>>> meas_value("C[C@]12Cc3cnn(-c4ccc(F)cc4)c3C=C1CC[C@@]2(CO)CC(O)C1CCCCC1 (single isomer, unassigned) [Example 18b]")
56.2
>>> meas_value("C[C@]12Cc3cnn(-c4ccc(F)cc4)c3C=C1CC[C@@]2(CO)CC(O)C1CC1 (single isomer, unassigned) [Example 20b]")
11.3
>>> meas_value("COc1cccnc1C(O)C[C@]1(CO)CCC2=Cc3c(cnn3-c3cccc(F)c3)C[C@@]21C (single isomer, unassigned) [Example 26a]")
24.8

----------
# system tested: human GR (Homo sapiens, UniProt P04150)
# Construct: naturally expresses the human GR; endogenous in cells
# measurement notes: Trans-Activation Modulation of Glucocorticoid Receptor Assay (GRAMMER), MMTV-LUC reporter in A549 cells
# Format: cell-based
# condition notes: Emax relative to the activity obtained with 300 nM dexamethasone
readout kind: Transactivation A549 Cells GRAMMER Emax (%)

>>> meas_value("C[C@]12Cc3cnn(-c4ccc(F)cc4)c3C=C1CC[C@@]2(CO)CC(O)c1cccc(C(F)(F)F)c1 (single isomer, unassigned)")
55.8
>>> meas_value("Cc1ccc(C(O)C[C@]2(CO)CCC3=Cc4c(cnn4-c4ccc(F)cc4)C[C@@]32C)cc1 (single isomer, unassigned)")
46.6
>>> meas_value("C[C@]12Cc3cnn(-c4ccc(F)cc4)c3C=C1CC[C@@]2(CO)CC(O)c1ccncc1 (single isomer, unassigned) [Example 17b]")
35.6
>>> meas_value("C[C@]12Cc3cnn(-c4ccc(F)cc4)c3C=C1CC[C@@]2(CO)CC(O)c1cc(F)cc(Cl)c1 (single isomer, unassigned) [Example 6a]")
62.4
>>> meas_value("COc1ccc(C(O)C[C@]2(CO)CCC3=Cc4c(cnn4-c4ccc(F)cc4)C[C@@]32C)nc1 (single isomer, unassigned) [Example 24b]")
4.5
>>> meas_value("C[C@]12Cc3cnn(-c4ccc(F)cc4)c3C=C1CC[C@@]2(CO)CC(O)C1CC1 (single isomer, unassigned) [Example 20a]")
23.1
>>> meas_value("C[C@]12Cc3cnn(-c4ccc(F)cc4)c3C=C1CC[C@@]2(CO)CC(O)c1ncccc1F (single isomer, unassigned) [Example 10b]")
67.0
>>> meas_value("C[C@]12Cc3cnn(-c4ccc(F)cc4)c3C=C1CC[C@@]2(CO)CC(O)c1ccccc1 (single isomer, unassigned) [Example 13b]")
57.5
>>> meas_value("C[C@]12Cc3cnn(-c4ccc(F)cc4)c3C=C1CC[C@@]2(CO)CC(O)c1ccccn1 (single isomer, unassigned) [Example 1b]")
56.0
>>> meas_value("C[C@]12Cc3cnn(-c4ccc(F)cc4)c3C=C1CC[C@@]2(CO)CC(O)c1ccc(F)cn1 (single isomer, unassigned) [Example 22b]")
74.3
>>> meas_value("C[C@]12Cc3cnn(-c4ccc(F)cc4)c3C=C1CC[C@@]2(CO)CC(O)c1ccccc1Cl (single isomer, unassigned)")
130.3
>>> meas_value("COc1cccnc1C(O)C[C@]1(CO)CCC2=Cc3c(cnn3-c3cccc(F)c3)C[C@@]21C (single isomer, unassigned) [Example 26b]")
4.3

----------
# system tested: human GR (Homo sapiens, UniProt P04150)
# Construct: naturally expresses the human GR; endogenous in cells
# measurement notes: Trans-Activation Modulation of Glucocorticoid Receptor Assay (GRAMMER), MMTV-LUC reporter in A549 cells
# Format: cell-based
# condition notes: inflection point (IP), MMTV-LUC reporter, read-out: Transactivation A549 Cells GRAMMER IP
pEC50: −log10 of the molar value.
Decision: pEC50 compared against 7; not below it gives YES, below it gives NO.

>>> assigned_label("COc1cccnc1C(O)C[C@]1(CO)CCC2=Cc3c(cnn3-c3cccc(F)c3)C[C@@]21C (single isomer, unassigned) [Example 26b]")
"NO"
>>> assigned_label("C[C@]12Cc3cnn(-c4ccc(F)cc4)c3C=C1CC[C@@]2(CO)CC(O)c1ccccc1 (single isomer, unassigned) [Example 13b]")
"YES"
>>> assigned_label("C[C@]12Cc3cnn(-c4ccc(F)cc4)c3C=C1CC[C@@]2(CO)CC(O)c1ccccc1F (stereo partly shown) [Example 4]")
"YES"
>>> assigned_label("C[C@]12Cc3cnn(-c4ccccc4)c3C=C1CC[C@@]2(CO)CC(O)c1ccccn1 (single isomer, unassigned) [Example 23a]")
"YES"
>>> assigned_label("C[C@]12Cc3cnn(-c4ccc(F)cc4)c3C=C1CC[C@@]2(CO)CC(O)c1ccccc1Cl (single isomer, unassigned) [Example 3b]")
"YES"
>>> assigned_label("C[C@]12Cc3cnn(-c4ccc(F)cc4)c3C=C1CC[C@@]2(CO)CC(O)c1cc(F)cc(F)c1 (stereo partly shown) [Example 9]")
"YES"
>>> assigned_label("C[C@]12Cc3cnn(-c4ccc(F)cc4)c3C=C1CC[C@@]2(CO)CC(O)c1ncccc1F (single isomer, unassigned) [Example 10a]")
"YES"
>>> assigned_label("C[C@]12Cc3cnn(-c4ccc(F)cc4)c3C=C1CC[C@@]2(CO)CC(O)c1cccc(C(F)(F)F)c1 (single isomer, unassigned) [Example 7a]")
"YES"
>>> assigned_label("C[C@]12Cc3cnn(-c4ccc(F)cc4)c3C=C1CC[C@@]2(CO)CC(O)c1ccc(F)cn1 (single isomer, unassigned) [Example 22a]")
"YES"
>>> assigned_label("COc1ccc(C(O)C[C@]2(CO)CCC3=Cc4c(cnn4-c4ccc(F)cc4)C[C@@]32C)nc1 (single isomer, unassigned) [Example 24a]")
"NO"
>>> assigned_label("C[C@]12Cc3cnn(-c4cccc(F)c4)c3C=C1CC[C@@]2(CO)CC(O)c1ccccn1 (single isomer, unassigned) [Example 19a]")
"YES"
>>> assigned_label("C[C@]12Cc3cnn(-c4ccc(F)cc4)c3C=C1CC[C@@]2(CO)CC(O)c1ccccc1Cl (single isomer, unassigned) [Example 3a]")
"YES"
>>> assigned_label("COc1ccc(C(O)C[C@]2(CO)CCC3=Cc4c(cnn4-c4ccc(F)cc4)C[C@@]32C)nc1 (single isomer, unassigned) [Example 24b]")
"NO"
>>> assigned_label("CC(C)C(O)C[C@]1(CO)CCC2=Cc3c(cnn3-c3ccc(F)cc3)C[C@@]21C (single isomer, unassigned) [Example 14b]")
"NO"
>>> assigned_label("C[C@]12Cc3cnn(-c4ccc(F)cc4)c3C=C1CC[C@@]2(CO)CC(O)c1ccccc1 (single isomer, unassigned) [Example 13a]")
"YES"
>>> assigned_label("C[C@]12Cc3cnn(-c4ccccc4)c3C=C1CC[C@@]2(CO)CC(O)c1cccnc1 (single isomer, unassigned) [Example 29a]")
"NO"
>>> assigned_label("CC(O)(C[C@]1(CO)CCC2=Cc3c(cnn3-c3ccc(F)cc3)C[C@@]21C)c1cccnc1 (single isomer, unassigned) [Example 25b]")
"NO"
>>> assigned_label("C[C@]12Cc3cnn(-c4ccc(F)cc4)c3C=C1CC[C@@]2(CO)CC(O)C1CC1 (single isomer, unassigned) [Example 20b]")
"NO"
>>> assigned_label("C[C@]12Cc3cnn(-c4ccc(F)cc4)c3C=C1CC[C@@]2(CO)CC(O)C1CCCCC1 (single isomer, unassigned) [Example 18b]")
"YES"

----------
# system tested: human GR (Homo sapiens, UniProt P04150)
# Construct: naturally expresses the human GR; endogenous in cells
# measurement notes: Trans-Activation Modulation of Glucocorticoid Receptor Assay (GRAMMER), MMTV-LUC reporter in A549 cells
# Type: cell-based
# condition notes: A549, Emax relative to the activity obtained with 300 nM dexamethasone, read-out: Transactivation A549 Cells GRAMMER Emax (%)
readout kind: Emax (%)

>>> meas_value("Cc1ccc(C(O)C[C@]2(CO)CCC3=Cc4c(cnn4-c4ccc(F)cc4)C[C@@]32C)nc1 (stereo partly shown)")
38.3
>>> meas_value("C[C@]12Cc3cnn(-c4ccc(F)cc4)c3C=C1CC[C@@]2(CO)CC1OC(=O)c2ccccc21 (single isomer, unassigned) [Example 12a]")
47.4
>>> meas_value("Cc1cccc(C(O)C[C@]2(CO)CCC3=Cc4c(cnn4-c4ccc(F)cc4)C[C@@]32C)c1 (single isomer, unassigned)")
65.5
>>> meas_value("C[C@]12Cc3cnn(-c4ccc(F)cc4)c3C=C1CC[C@@]2(CO)CC(O)c1cccnc1 (single isomer, unassigned) [Example 15a]")
52.7
>>> meas_value("C[C@]12Cc3cnn(-c4ccc(F)cc4)c3C=C1CC[C@@]2(CO)CC(O)c1ncccc1F (single isomer, unassigned) [Example 10a]")
56.6
>>> meas_value("Cc1ccc(C(O)C[C@]2(CO)CCC3=Cc4c(cnn4-c4ccc(F)cc4)C[C@@]32C)cc1 (single isomer, unassigned)")
45.5
>>> meas_value("C[C@]12Cc3cnn(-c4ccc(F)cc4)c3C=C1CC[C@@]2(CO)CC(O)c1ccccc1F (stereo partly shown)")
80.3
>>> meas_value("C[C@]12Cc3cnn(-c4ccc(F)cc4)c3C=C1CC[C@@]2(CO)CC(O)c1ccc(F)cn1 (single isomer, unassigned) [Example 22a]")
63.2
>>> meas_value("C[C@]12Cc3cnn(-c4ccc(F)cc4)c3C=C1CC[C@@]2(CO)CC(O)c1cccc(Cl)c1 (stereo partly shown)")
56
>>> meas_value("C[C@]12Cc3cnn(-c4ccc(F)cc4)c3C=C1CC[C@@]2(CO)CC(O)c1ccccc1 (single isomer, unassigned) [Example 13a]")
73.1
